Entry source: patent US20220406376A1

EC50 (read off the curve) by entry:
# STUDY SYSTEM: T1, CD137 on the surface of cells (activated human T cells; engineered CHO cells) (human, UniProt Q07011 24-255)
# T1 construct: whole, on cells; also called human CD137; cell surface expressed CD137
# T1 sequence (Q07011 24-255, change not shown): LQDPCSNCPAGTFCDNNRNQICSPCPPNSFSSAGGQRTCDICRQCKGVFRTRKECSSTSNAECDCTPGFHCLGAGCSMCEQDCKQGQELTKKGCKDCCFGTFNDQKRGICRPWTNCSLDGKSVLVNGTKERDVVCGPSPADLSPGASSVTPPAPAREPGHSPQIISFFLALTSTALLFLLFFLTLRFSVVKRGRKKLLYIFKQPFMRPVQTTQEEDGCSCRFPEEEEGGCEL
# ASSAY PROTOCOL: flow cytometry on activated pan T cells gated CD8+, anti-hFc APC MFI

Worked cases, EC50 (read off the curve) given:
Returns the measured EC50 (read off the curve) for the input binder. Input: CD137 MAB-1 (antibody, V domains shown, also called urelumab; BMS-663513) VH: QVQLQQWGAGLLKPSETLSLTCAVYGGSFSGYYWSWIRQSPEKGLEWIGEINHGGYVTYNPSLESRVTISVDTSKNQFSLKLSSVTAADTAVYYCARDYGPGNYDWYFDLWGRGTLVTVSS VL: EIVLTQSPATLSLSPGERATLSCRASQSVSSYLAWYQQKPGQAPRLLIYDASNRATGIPARFSGSGSGTDFTLTISSLEPEDFAVYYCQQRSNWPPALTFGGGTKVEIK
~0.005 µg/mL

Again, but for chCD137 MAB-4 (antibody, V domains shown) VH: QVQLQQPGAELVRPGASVKLSCKASGYTFTSYWINWVKQRPGQGLEWIGNIYPSDSYTNYDQKFKDKATLTVDKSSSTAYMQLSSPTSEDSAVYYCTKSGEYGKIGYYAMDYWGQGTSVTVSS VL: DIQMTQTTSSLSASLGDRVTISCRASQDISNYLNWYQQKPDGTVKLLIYYTSRLHSGVPSRFSGSGSGTDYSLTISNLEQEDIATYFCQQGNTLPYTFGGGTKLEIK
~0.02 µg/mL

Again, but for chCD137 MAB-5 (antibody, V domains shown) VH: QVQLKESGPGLVAPSQSLSITCTVSGFSLTSYDISWIRQPPGKGLEWLGVVWTGGGTNYNSAFMSRLSISKDNSKSQVFLKMNSLQTDDTAIYYCERVDYWGQGTSVTVSS VL: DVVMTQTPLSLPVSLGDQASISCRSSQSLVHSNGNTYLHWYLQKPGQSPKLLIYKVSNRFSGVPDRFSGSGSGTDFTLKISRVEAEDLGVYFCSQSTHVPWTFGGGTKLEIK
~0.1 µg/mL

Here's the next entry for you.
Returns the measured EC50 (read off the curve) for the input binder. Input: chCD137 MAB-3 (antibody, V domains shown) VH: QVQLQQPGAELVRPGASVKLSCKASGYTFTSYWINWVKQRPGQGLEWIGNIYPSDSYTNYNQKFKDKATLTVDKSSSTAYMQLSSPTSEDSAVYYCTRDYGSSYSFDYWGQGTTLTVSS VL: DIQMTQTTSSLSASLGDRVTISCRPSQDISNYLNWYQQKPDGTVKLLIYYTSRLRSGVPSRFSGSGSGTDYSLTISNLEQEDIATYFCQQGDTLPYTFGGGTKLEIK
~0.002 µg/mL
